Molecular target: IgE-Tb / soluble IgE receptor FcεRIα (Y131A mutation) (Homo sapiens, UniProt P01854, C105A/N146Q/N252Q)
Construct: 86 nmoles of IgE-Fc(N265Q, N371Q) (Young et al., 1995)
Sequence (P01854 104-428 isoform P01854-1 C105A/N146Q/N252Q): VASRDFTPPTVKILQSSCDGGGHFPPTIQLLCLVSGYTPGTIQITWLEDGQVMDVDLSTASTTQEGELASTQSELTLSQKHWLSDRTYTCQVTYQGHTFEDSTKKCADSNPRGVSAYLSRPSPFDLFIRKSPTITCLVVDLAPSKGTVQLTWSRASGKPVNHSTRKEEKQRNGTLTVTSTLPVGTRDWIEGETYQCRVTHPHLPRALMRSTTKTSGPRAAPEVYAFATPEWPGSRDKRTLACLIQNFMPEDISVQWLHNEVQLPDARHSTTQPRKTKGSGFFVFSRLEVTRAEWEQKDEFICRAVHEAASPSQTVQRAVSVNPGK
Assay: in vitro FRET assay: binding of IgE-Tb to receptor FcεRIα-Y131A-AF488 and inhibition by compounds
Settings: 5 nM IgE-Tb, 25 nM FcεRIα-Y131A-AF488, 2 hours at room temperature; read-out: FRET IC50 range
pIC50: −log10 of the molar value.
Reported pIC50 by item:

Worked cases, pIC50 given:
• Cc1cc(NC(=O)NC2CCCc3c2cc(S(=O)(=O)NCC(C)(C)F)c2cc(C4CC4)ncc32)n(C)n1 (stereo not shown) = 6.00 to 7.00
• CC(C)CNS(=O)(=O)c1cc2c(c3cnc(C4CC4)cc13)C(NS(C)(=O)=O)CCC2 (stereo not shown) = 5.30 to 6.00
• CCOC(=O)c1ncn(C2CCCc3c2cc(S(=O)(=O)NCC(C)(C)F)c2cc(C4CC4)ncc32)c1N (stereo not shown) = 6.00 to 7.00

Consider the molecule Cn1nnc(-c2ccc(NC3CCCc4c3cc(S(=O)(=O)NCC(C)(C)F)c3cc(C5CC5)ncc43)cn2)n1 (stereo not shown) and give its measured pIC50.
7.30 to 8.00

Can you look up the measured pIC50 of CC(C)CNS(=O)(=O)c1cc2c(c3cnc(C4CC4)cc13)CCCC2NS(C)(=O)=O (stereo not shown) for me?
6.00 to 7.00

Reported pIC50, molecule CCNC(=O)NC1CCCc2c1cc(S(=O)(=O)NCC(C)C)c1cc(C3CC3)ncc21 (stereo not shown) : ____
7.00 to 7.30

Dear colleague, I am looking for the recorded pIC50 of the following molecule: Cc1noc(-c2cncc(NC3CCCc4c3cc(S(=O)(=O)NCC(C)(C)F)c3cc(C5CC5)ncc43)c2)n1 (stereo not shown)
7.00 to 7.30
